Values from the RNAGym collection of RNA variant scans (doi:10.1093/nar/gkz1192)

B1: CPEB3 Ribozyme (parent)
chain: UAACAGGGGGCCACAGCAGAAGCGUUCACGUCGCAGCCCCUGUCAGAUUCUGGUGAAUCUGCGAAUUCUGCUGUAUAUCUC

variants of: B1; experiment: self-cleavage, relative activity (ratio to wild type); higher = more cleavage; in vitro, sequencing
Kindly return 1.0 if reported self-cleavage is no lower than 0.3; return 0.0 if it is lower.

      changes  group
 0  A28U U66C    1.0
 1  A13U A20U    1.0
 2       A64G    1.0
 3  C34U U54A    0.0
 4  A21G G30U    0.0
 5  A13G C27U    0.0
 6  U74C U78C    1.0
 7  U58C A64G    1.0
 8   A3U U58A    1.0
 9  A65U C68A    0.0
10  C39G A64G    1.0
11  A45U A65G    0.0
12  G30C U54A    0.0
13  C59U U67A    0.0
14  A56G C59A    0.0
15  G10C A15G    0.0
16  A13G U25C    1.0
17  A18U U41A    0.0
18  C14U U49C    1.0
